- protocol notes: AUC in Crl:CD(SD) rat plasma at 1 mg/kg, po by LC-MS/MS analysis
- Format: ADME, organism-based
Listed here: items and their measured AUC.
Kindly provide the numeric value in ng·h/mL only, without the unit symbol.

# compound structure string, endpoint name, readout value
data = [
    ("Cc1c(N2CC[C@](C)(O)[C@@H]2C)ccc(C#N)c1Cl", "AUC", 237),
]

Summary for this compound, "C[C@@H]1N(c2ccc(C#N)c(Cl)c2)CC[C@]1(C)O" : AUC is 931

Reported AUC for "Cc1c(N2CC[C@H](O)[C@@H]2C)ccc(C#N)c1Cl" was 3.2

Looking up "Cc1c(N2CC[C@](C)(O)[C@@H]2C)ccc(C#N)c1F" , I found its AUC recorded as 388

Reference for the values: ChEMBL document CHEMBL4011613
